# credit: ChEMBL document CHEMBL1255573

Reported values of EC50 for individual entries
systemTested: Mineralocorticoid receptor (Homo sapiens)
Sequence (P08235 whole entry, the tested form may be a part): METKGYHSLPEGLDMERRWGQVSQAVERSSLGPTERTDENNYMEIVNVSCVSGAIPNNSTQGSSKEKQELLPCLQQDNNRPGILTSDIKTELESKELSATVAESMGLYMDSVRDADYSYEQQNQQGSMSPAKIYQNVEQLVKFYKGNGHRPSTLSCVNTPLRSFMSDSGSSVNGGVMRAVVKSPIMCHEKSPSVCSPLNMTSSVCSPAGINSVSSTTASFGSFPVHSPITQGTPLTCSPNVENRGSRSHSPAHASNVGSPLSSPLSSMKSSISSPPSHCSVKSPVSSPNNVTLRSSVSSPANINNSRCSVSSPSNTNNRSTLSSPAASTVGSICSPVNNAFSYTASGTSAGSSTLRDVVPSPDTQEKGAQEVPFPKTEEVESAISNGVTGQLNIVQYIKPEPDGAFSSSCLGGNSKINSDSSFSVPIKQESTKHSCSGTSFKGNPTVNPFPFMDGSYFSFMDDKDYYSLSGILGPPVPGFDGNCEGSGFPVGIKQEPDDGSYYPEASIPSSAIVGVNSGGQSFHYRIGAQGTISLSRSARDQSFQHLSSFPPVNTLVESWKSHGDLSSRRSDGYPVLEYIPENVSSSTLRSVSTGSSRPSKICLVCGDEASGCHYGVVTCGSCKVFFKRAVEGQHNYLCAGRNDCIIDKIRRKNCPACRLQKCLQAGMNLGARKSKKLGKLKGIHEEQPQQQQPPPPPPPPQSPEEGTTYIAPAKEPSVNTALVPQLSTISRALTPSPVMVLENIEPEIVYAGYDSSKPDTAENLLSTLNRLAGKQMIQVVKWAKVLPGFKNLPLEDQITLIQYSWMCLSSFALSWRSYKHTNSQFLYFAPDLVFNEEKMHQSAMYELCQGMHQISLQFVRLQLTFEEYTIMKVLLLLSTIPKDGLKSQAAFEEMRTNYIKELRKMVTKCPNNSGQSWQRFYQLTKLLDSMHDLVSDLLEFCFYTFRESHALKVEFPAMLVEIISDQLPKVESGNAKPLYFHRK
assaySummary: Agonist activity at mineralocorticoid receptor-LBD in human U2OS cells transfected with Gal4-DBD assessed as increase of transactivation activity after 18 hrs by luciferase reporter gene assay

Ask: Identify the reported EC50 for the following entry. C[C@]12CC[C@@H]3c4ccc(O)cc4CC[C@H]3[C@@H]1CC[C@@]2(O)/C=C/CC(F)(C(F)(F)F)C(F)(F)F
Reply: < 15.8 µM

Ask: Identify the reported EC50 for the following entry. COc1ccc2c(c1)CC[C@@H]1[C@@H]2CC[C@@]2(C)[C@H]1CC[C@@]2(O)/C=C/CC(F)(F)C(F)(F)C(F)(F)F
Reply: < 15.8 µM

Ask: Identify the reported EC50 for the following entry. C[C@]12CC[C@@H]3c4ccc(O)cc4CC[C@H]3[C@@H]1CC[C@@]2(O)/C=C/CC(F)(F)C(F)(F)C(F)(F)F
Reply: < 15.8 µM

Ask: Identify the reported EC50 for the following entry. COc1ccc2c(c1)CC[C@@H]1[C@@H]2CC[C@@]2(C)[C@H]1CC[C@@]2(O)C/C=C/CC(F)(F)C(F)(F)C(F)(F)C(F)(F)C(F)(F)C(F)(F)F
Reply: < 15.8 µM

Ask: Identify the reported EC50 for the following entry. C[C@]12CC[C@@H]3c4ccc(O)cc4CC[C@H]3[C@@H]1CC[C@@]2(O)C/C=C/CC(F)(F)C(F)(F)C(F)(F)C(F)(F)C(F)(F)C(F)(F)F
Reply: < 15.8 µM

Ask: Identify the reported EC50 for the following entry. COc1ccc2c(c1)CC[C@@H]1[C@@H]2CC[C@@]2(C)[C@H]1CC[C@@]2(O)/C=C/CC(F)(F)C(F)(F)C(F)(F)C(F)(F)C(F)(F)C(F)(F)F
Reply: < 15.8 µM

* * *

systemTested: Mineralocorticoid receptor (Homo sapiens)
assaySummary: Antagonist activity at mineralocorticoid receptor-LBD in human U2OS cells transfected with Gal4-DBD assessed as inhibition of transactivation activity after 18 hrs by luciferase reporter gene assay
reportedProperty: IC50 (µM)

molecularString	quantityUnit	IC50
C[C@]12CC[C@@H]3c4ccc(O)cc4CC[C@H]3[C@@H]1CC[C@@]2(O)C/C=C/CC(F)(C(F)(F)F)C(F)(F)F	µM	5.14
C[C@]12CC[C@@H]3c4ccc(O)cc4CC[C@H]3[C@@H]1CC[C@@]2(O)/C=C/CC(F)(F)C(F)(F)C(F)(F)F	µM	3.81

* * *

Reported values of pIC50 for individual entries
systemTested: Estrogen receptor beta (Homo sapiens, UniProt Q92731)
Sequence (Q92731 whole entry, the tested form may be a part): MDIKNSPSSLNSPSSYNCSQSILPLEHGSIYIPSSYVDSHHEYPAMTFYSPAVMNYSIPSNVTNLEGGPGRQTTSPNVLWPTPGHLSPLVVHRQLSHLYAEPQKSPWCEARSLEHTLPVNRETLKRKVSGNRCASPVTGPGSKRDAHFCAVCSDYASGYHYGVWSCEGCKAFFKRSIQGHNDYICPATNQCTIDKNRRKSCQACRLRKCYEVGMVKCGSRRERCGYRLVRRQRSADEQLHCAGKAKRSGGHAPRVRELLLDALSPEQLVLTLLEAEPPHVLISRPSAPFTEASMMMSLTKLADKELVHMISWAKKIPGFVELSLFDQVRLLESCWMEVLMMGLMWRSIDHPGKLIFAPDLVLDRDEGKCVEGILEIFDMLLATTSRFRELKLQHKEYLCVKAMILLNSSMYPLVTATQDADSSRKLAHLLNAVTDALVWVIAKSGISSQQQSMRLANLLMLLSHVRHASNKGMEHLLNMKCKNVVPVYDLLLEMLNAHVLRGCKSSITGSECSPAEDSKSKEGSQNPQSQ
assaySummary: Antagonist activity at ERbeta-LBD in human U2OS cells transfected with Gal4-DBD assessed as inhibition of transactivation activity after 18 hrs by luciferase reporter gene assay
pIC50: −log10 of the molar value.

molecularString	pIC50
COc1ccc2c(c1)CC[C@@H]1[C@@H]2CC[C@@]2(C)[C@H]1CC[C@@]2(O)C/C=C/CC(F)(F)C(F)(F)C(F)(F)F	> 4.80
C[C@]12CC[C@@H]3c4ccc(O)cc4CC[C@H]3[C@@H]1CC[C@@]2(O)/C=C/CC(F)(C(F)(F)F)C(F)(F)F	> 4.80
C[C@]12CC[C@@H]3c4ccc(O)cc4CC[C@H]3[C@@H]1CC[C@@]2(O)/C=C/CC(F)(F)C(F)(F)C(F)(F)F	> 4.91
C[C@]12CC[C@@H]3c4ccc(O)cc4CC[C@H]3[C@@H]1CC[C@@]2(O)C/C=C/CC(F)(F)C(F)(F)C(F)(F)F	> 4.80
C[C@]12CC[C@@H]3c4ccc(O)cc4CC[C@H]3[C@@H]1CC[C@@]2(O)C/C=C/CC(F)(F)C(F)(F)C(F)(F)C(F)(F)C(F)(F)C(F)(F)F	> 4.80

Turning now to a further compound:
Ask: Given COc1ccc2c(c1)CC[C@@H]1[C@@H]2CC[C@@]2(C)[C@H]1CC[C@@]2(O)C/C=C/CC(F)(F)C(F)(F)C(F)(F)C(F)(F)C(F)(F)C(F)(F)F , report its pIC50 on Estrogen receptor beta (Homo sapiens, UniProt Q92731).
Reply: > 4.80
